Consider the following compounds; for each one, report its TGI.
Test system: HT29 colon
experiment: NCI tumour cell line growth inhibition, 48 h

Reference set (8 entries):
compound	test_system	property	measured_result
CC1(C)CC2(C)CC1CC2NC(=O)CCN1CCOCC1 (stereo not given)	HT29 colon	TGI	> 100 µM
C=CCn1cc(C(=O)NC(=O)NCCCCCOC(=O)CCCCCCCCCCC(=O)OCCCCCNC(=O)NC(=O)c2cn(CC=C)c(=O)n(C)c2=O)c(=O)n(C)c1=O	HT29 colon	TGI	> 100 µM
C/C(=N\N=C(N)N)C(CN(C)C)C(c1ccccc1)c1c(O)c2ccccc2oc1=O (stereo not given)	HT29 colon	TGI	> 100 µM
C=C1C(=O)OC2CC(C)C3C=CC(=O)C3CC12 (stereo not given)	HT29 colon	TGI	4.83 µM
Clc1c(C(Cl)(Cl)Cl)nsc1N1CCCCC1	HT29 colon	TGI	38.3 µM
COc1ccc(Oc2nc(C#CC(C)(C)O)nc(Oc3ccc(OC)cc3)n2)cc1	HT29 colon	TGI	10.8 µM
CCCCCCCCCCCCCCCCCCOCC(COP(=O)([O-])OCC[N+](C)(C)C)OC (stereo not given)	HT29 colon	TGI	23.5 µM
Fc1ccc2[nH]cc(SSc3c[nH]c4ccc(F)cc34)c2c1	HT29 colon	TGI	23.9 µM

Okay, here is my list. What is TGI for each of these?
1. COc1ccc2c(c1)/C(=N/OC(C)=O)c1c-2c(=O)[nH]c2ccccc12
2. COc1cc(/C=C2\C(=O)Nc3cccc(Cl)c32)cc(OC)c1OC

# output
1: 32.8 µM; 2: > 100 µM

* * *

Test system: 786-0 renal
experiment: NCI tumour cell line growth inhibition, 48 h; in the data active means GI50 below about 0.43 µM; inactive means the rest
The reply should be one of these categories: YES for active, NO for inactive

Field: example entries. Status: answers known.
molecule	cat
NC1=Nc2cc(OCCCN3Cc4ccccc4C3)c(OCC3CC3)cc2C12CCCC2	NO
CCNCCCn1c2c(c3ccc([N+](=O)[O-])cc3c1=O)C(=O)c1cc(OC)cnc1-2	YES
NC1CCC(N[C@@H]2C[C@H]2c2ccccc2)CC1 (stereo not given in full)	NO
Cc1cc2cn3c4cccnc4[nH]c(=O)c3c2cc1C	NO
Cc1[nH]nc2c1N=C(c1ccccc1Cl)c1cc([N+](=O)[O-])ccc1N2	NO
C=C1C(=O)O[C@H]2[C@H]1CC/C(COC(=O)c1ccccc1)=C\CC[C@@]1(C)O[C@@H]21	NO
O=C1CCS/C(=N\S(=O)(=O)c2ccc(N3N=C4c5ccccc5CC4C3c3cccs3)cc2)N1C(=O)c1ccccc1 (stereo not given)	NO
OCC(O)C(O)C(O)/C=N/Nc1nc2ccccc2nc1-c1ccccc1 (stereo not given)	NO
Clc1ccc(Nc2ccnc(NCCCNc3ccnc4cc(Cl)ccc34)n2)cc1	NO

Turning now to a further molecule:
# input Given O=C(Nc1ccccc1)Nc1cccc(Oc2nnc(Cl)c3ccccc23)c1 , state the outcome it received in this test.
# output NO

* * *

System: SK-MEL-2 melanoma
experiment: NCI tumour cell line growth inhibition, 48 h
Give measured TGI for each item. Keep answers brief.
Answers are plain numbers, in µM.

Here are 5 molecules together with their reported answers.
molecule	test_system	property	measured_result
CCOC(=O)Cn1c(=O)c2cc(-c3ccccc3)cc3c(Cl)nc4c(OC)c(OC)cc1c4c32	SK-MEL-2 melanoma	TGI	35.4
CCN(CC)CCCC(C)NC(=O)c1ccc2c(c1)C(=O)c1ccccc1C2=O (configuration not stated)	SK-MEL-2 melanoma	TGI	38.9
COc1ccc2c(c1)C1(C(=O)N2)C(C#N)=C(c2ccccc2)Nc2c1c(-c1ccccc1)nn2-c1ccccc1 (configuration not stated)	SK-MEL-2 melanoma	TGI	21.8
COc1ccccc1NC(=O)O/N=C(/Cl)C(C)C	SK-MEL-2 melanoma	TGI	31
CCN1CCC(O)(c2ccc(Oc3ccc(C)cc3)cc2)C(C(=O)c2ccc(Oc3ccc(C)cc3)cc2)C1 (configuration not stated)	SK-MEL-2 melanoma	TGI	35.9

Go through the list and state TGI for each entry.
1. N#Cc1ccc2c(c1)C(=O)c1c-2n(CCCN)c(=O)c2cc([N+](=O)[O-])ccc12
2. C=C1C(=O)O[C@H]2[C@H]1CC/C(COC(=O)c1ccccc1)=C\CC[C@@]1(C)O[C@@H]21

# output
[1.29, 4.02]
